B1: glmS ribozyme (parent)
chain: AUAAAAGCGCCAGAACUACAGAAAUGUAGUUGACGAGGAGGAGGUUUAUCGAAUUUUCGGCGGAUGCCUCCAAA

Variants of: B1
Test: KM; higher = weaker cofactor use; RNA array
Conditions: with glucosamine-6-phosphate
KM class ranges: lower band (below 800 µM), central band (800 µM to below 3000 µM), upper band (3000 µM or more)

Examples with answers:
Ask | Field: class (KM) — entry: G32A U47G
Reply | upper band

Ask | Field: class (KM) — entry: U31G C58A
Reply | central band

Ask | Field: class (KM) — entry: A14U G44A
Reply | central band

Next:
Ask | Field: class (KM) — entry: C67U C70U C71U
Reply | lower band

Ask | Field: class (KM) — entry: A12G G66U C67U
Reply | central band

Ask | Field: class (KM) — entry: C16A U30G
Reply | central band

Ask | Field: class (KM) — entry: U57A
Reply | upper band

Ask | Field: class (KM) — entry: A12C C50U
Reply | upper band

Ask | Field: class (KM) — entry: A12G A64G
Reply | central band

Ask | Field: class (KM) — entry: A14G C70U
Reply | central band

Ask | Field: class (KM) — entry: U46G
Reply | central band

Ask | Field: class (KM) — entry: U47A C50A
Reply | upper band

Ask | Field: class (KM) — entry: G40U U45G
Reply | lower band

Ask | Field: class (KM) — entry: A48U A53G
Reply | central band

Ask | Field: class (KM) — entry: U31A G40A
Reply | central band

Ask | Field: class (KM) — entry: A15C U55A
Reply | central band

Ask | Field: class (KM) — entry: G32A U54A
Reply | upper band

Ask | Field: class (KM) — entry: A64C C67U
Reply | lower band

Ask | Field: class (KM) — entry: G37A G43U
Reply | lower band

Ask | Field: class (KM) — entry: A15U G32C
Reply | central band
